- target: EGFR (form used in the assay not stated) (human, UniProt P00533 25-645, limits assumed)
- testProtocol: ELISA, NEM conjugate, 100 nM
Lab note: anything with binding relative to P54AR4-83v2 parent at or over 1 ratio counts as Satisfied; the rest go in Not satisfied.

binder	discreteLabel
P54AR4-83v2 N76C, NEM conjugate (designed binder, not shown: small tags and cut ends, N-ethyl maleimide (NEM) on Cys 76) LPAPKNLVVSEVTEDSARLSWDDPWAFYESFLIQYQESEKVGEAIVLTVPGSERSYDLTGLKPGTEYTVSIYGVHCVYKDTNMRGLPLSAIFTT	Not satisfied

Task: Entry P54AR4-83v2 F31C, NEM conjugate (designed binder, not shown: small tags and cut ends, N-ethyl maleimide (NEM) on Cys 31) LPAPKNLVVSEVTEDSARLSWDDPWAFYESCLIQYQESEKVGEAIVLTVPGSERSYDLTGLKPGTEYTVSIYGVHNVYKDTNMRGLPLSAIFTT : is its binding relative to P54AR4-83v2 parent no less than 1 ratio?
Result: Not satisfied

Task: # check: binding relative to P54AR4-83v2 parent of P54AR4-83v2 R18C, NEM conjugate (designed binder, not shown: small tags and cut ends, N-ethyl maleimide (NEM) on Cys 18) LPAPKNLVVSEVTEDSACLSWDDPWAFYESFLIQYQESEKVGEAIVLTVPGSERSYDLTGLKPGTEYTVSIYGVHNVYKDTNMRGLPLSAIFTT is greater than or equal to 1 ratio
Result: Satisfied

Task: API: above_or_equal(metric=binding relative to P54AR4-83v2 parent, cutoff=1 ratio) for item P54AR4-83v2 D15C, NEM conjugate (designed binder, not shown: small tags and cut ends, N-ethyl maleimide (NEM) on Cys 15) LPAPKNLVVSEVTECSARLSWDDPWAFYESFLIQYQESEKVGEAIVLTVPGSERSYDLTGLKPGTEYTVSIYGVHNVYKDTNMRGLPLSAIFTT
Result: Satisfied

Task: Identify whether the reported binding relative to P54AR4-83v2 parent of the following binder is 1 ratio or greater: P54AR4-83v2 T59C, NEM conjugate (designed binder, not shown: small tags and cut ends, N-ethyl maleimide (NEM) on Cys 59) LPAPKNLVVSEVTEDSARLSWDDPWAFYESFLIQYQESEKVGEAIVLTVPGSERSYDLCGLKPGTEYTVSIYGVHNVYKDTNMRGLPLSAIFTT
Result: Satisfied

Task: # check: binding relative to P54AR4-83v2 parent of P54AR4-83v2 T93C, NEM conjugate (designed binder, not shown: small tags and cut ends, N-ethyl maleimide (NEM) on Cys 93) LPAPKNLVVSEVTEDSARLSWDDPWAFYESFLIQYQESEKVGEAIVLTVPGSERSYDLTGLKPGTEYTVSIYGVHNVYKDTNMRGLPLSAIFCT is greater than or equal to 1 ratio
Result: Satisfied

Task: API: above_or_equal(metric=binding relative to P54AR4-83v2 parent, cutoff=1 ratio) for item P54AR4-83v2 P2C, NEM conjugate (designed binder, not shown: small tags and cut ends, N-ethyl maleimide (NEM) on Cys 2) LCAPKNLVVSEVTEDSARLSWDDPWAFYESFLIQYQESEKVGEAIVLTVPGSERSYDLTGLKPGTEYTVSIYGVHNVYKDTNMRGLPLSAIFTT
Result: Not satisfied
